Provenance of the data: patent US9371320B2

For each of the molecules below, state its inhibition at 1 µM.
study_system: JAK1 (Homo sapiens)
Construct: purchased Invitrogen
Sequence (P23458 whole entry): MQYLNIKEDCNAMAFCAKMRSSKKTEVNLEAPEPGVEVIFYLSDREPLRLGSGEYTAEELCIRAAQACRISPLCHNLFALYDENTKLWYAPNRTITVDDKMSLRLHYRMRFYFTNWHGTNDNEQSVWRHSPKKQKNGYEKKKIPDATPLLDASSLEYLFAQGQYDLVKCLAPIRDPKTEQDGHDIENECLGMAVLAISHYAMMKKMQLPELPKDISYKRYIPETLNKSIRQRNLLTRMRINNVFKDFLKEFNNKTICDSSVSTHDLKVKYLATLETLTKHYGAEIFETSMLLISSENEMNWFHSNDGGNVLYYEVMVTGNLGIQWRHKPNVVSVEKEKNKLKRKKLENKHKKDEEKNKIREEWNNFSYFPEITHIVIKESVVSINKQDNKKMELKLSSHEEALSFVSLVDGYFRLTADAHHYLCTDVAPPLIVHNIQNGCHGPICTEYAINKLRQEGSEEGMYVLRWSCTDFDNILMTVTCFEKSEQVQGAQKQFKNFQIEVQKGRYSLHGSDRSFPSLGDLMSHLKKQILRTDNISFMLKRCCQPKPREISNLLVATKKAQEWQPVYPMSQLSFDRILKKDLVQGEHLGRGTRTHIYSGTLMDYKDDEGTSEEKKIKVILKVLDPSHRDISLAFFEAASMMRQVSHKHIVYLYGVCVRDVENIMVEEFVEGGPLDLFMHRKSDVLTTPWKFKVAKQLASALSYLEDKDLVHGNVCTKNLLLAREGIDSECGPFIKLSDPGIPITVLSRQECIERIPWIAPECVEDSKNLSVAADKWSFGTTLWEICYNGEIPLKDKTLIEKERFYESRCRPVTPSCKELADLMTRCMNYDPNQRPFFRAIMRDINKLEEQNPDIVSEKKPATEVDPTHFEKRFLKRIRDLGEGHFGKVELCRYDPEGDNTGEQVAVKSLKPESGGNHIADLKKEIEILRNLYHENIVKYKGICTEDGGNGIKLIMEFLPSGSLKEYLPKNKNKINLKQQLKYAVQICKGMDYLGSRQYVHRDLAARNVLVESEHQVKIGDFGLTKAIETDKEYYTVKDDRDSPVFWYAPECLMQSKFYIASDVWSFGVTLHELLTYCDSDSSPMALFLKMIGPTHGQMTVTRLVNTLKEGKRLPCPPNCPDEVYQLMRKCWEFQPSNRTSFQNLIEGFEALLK
assay_method_text: JAK1 enzyme inhibition test (LANCE method)
Type: biochemical
test_conditions: test compound 1 μM; read-out: Inhibitory rate (%) JAK1 1 μM
API: value field is a number in %; no unit string.

So what's the measured inhibition at 1 µM for this one? O=c1[nH]ccc2c1c(-c1cccc(F)c1)nn2C1CCCC1 [Example 55]
78

Same for NC(=O)c1cc(-c2nn(C3CCC(O)(c4ccccc4)CC3)c3cc[nH]c(=O)c23)cs1 (stereo not shown) [Example 172]
99

Same for CNC(=O)c1cc(-c2nn(C3CCCC3)c3cc[nH]c(=O)c23)cs1 [Example 155]
100

Same for CNC(=O)c1cc(-c2cn(C3CCCC3)c3c(C#N)c[nH]c(=O)c23)cs1 [Example 108]
99

Same for COc1cc(N)cc(F)c1-n1cc(-c2csc(C(N)=O)c2)c2c(=O)[nH]ccc21 [Example 302]
97

Same for O=c1[nH]ccc2c1c(-c1ccc(OC(F)(F)F)cc1)nn2C1CCCC1 [Example 45]
90

Same for COc1ccccc1-c1nn(C2CCCC2)c2cc[nH]c(=O)c12 [Example 48]
3

Same for NC(=O)c1cc(-c2nn(C3CCCC3)c3cc[nH]c(=O)c23)cs1 [Example 13]
99

Same for NS(=O)(=O)c1cccc(Nc2nn(C3CCCC3)c3cc[nH]c(=O)c23)c1 [Example 284]
99

Same for N#Cc1cccc(F)c1-n1nc(-c2cn[nH]c2)c2c(=O)[nH]ccc21 [Example 315]
97

Same for NC(=O)Cn1cc(-c2nn(-c3c(F)cccc3F)c3c(Br)c[nH]c(=O)c23)cn1 [Example 175]
86

Same for Nc1ncc(-c2nn(-c3c(F)cccc3F)c3cc[nH]c(=O)c23)cn1 [Example 300]
68

Same for CN1CCN(c2ccc(-c3nn(-c4c(F)cccc4F)c4c(Cl)c[nH]c(=O)c34)cc2)C1=O [Example 239]
46

Same for CNC(=O)c1cc(-c2nn(-c3c(F)cccc3F)c3c(Br)c[nH]c(=O)c23)cs1 [Example 145]
99

Same for N#Cc1c[nH]c(=O)c2c(-c3ccc(CC(N)=O)cc3)cn(C3CCCC3)c12 [Example 95]
86

Same for N#Cc1c[nH]c(=O)c2c(Nc3cccc(C(N)=O)c3)cn(C3CCCC3)c12 [Example 178]
93

Same for CCC(COC)n1nc(-c2csc(C(N)=O)c2)c2c(=O)[nH]ccc21 (stereo not shown) [Example 150]
99

Same for NS(=O)(=O)c1ccc(-c2nn(-c3c(F)cccc3F)c3cc[nH]c(=O)c23)cc1 [Example 35]
99

Same for NS(=O)(=O)c1ccc(-c2nn(C3CCC(O)(c4ccccc4)CC3)c3cc[nH]c(=O)c23)cc1 (stereo not shown) [Example 174]
99

Same for CN(C)C(=O)c1cc(-c2cn(C3CCCC3)c3c(C#N)c[nH]c(=O)c23)cs1 [Example 107]
96

Same for NS(=O)(=O)c1ccc(-c2nn(C3CCC(=O)CC3)c3cc[nH]c(=O)c23)cc1 [Example 173]
99

Same for O=c1[nH]ccc2c1c(-c1ccsc1)cn2C1CCCC1 [Example 5]
97

Same for NS(=O)(=O)c1ccc(-c2nn(C3CCCC3)c3c(Br)c[nH]c(=O)c23)cc1 [Example 101]
80

Same for N#Cc1c[nH]c(=O)c2c(-c3csc(C(N)=O)c3)cn(C3CCCC3)c12 [Example 33]
99

Same for CCC(COC)n1cc(-c2ccc(CC#N)cc2)c2c(=O)[nH]ccc21 (stereo not shown) [Example 20]
59

Same for NS(=O)(=O)c1ccc(-c2nn(-c3ccccc3)c3cc[nH]c(=O)c23)cc1 [Example 30]
94

Same for NS(=O)(=O)c1ccc(-c2cn(C3CCOC3)c3cc[nH]c(=O)c23)cc1 (stereo not shown) [Example 18]
93

Same for N#Cc1c[nH]c(=O)c2c(-c3cnn(C4CCCC4)c3)cn(C3CCCC3)c12 [Example 137]
77

Same for CNS(=O)(=O)c1ccc(-c2nn(C3CCCC3)c3cc[nH]c(=O)c23)cc1 [Example 223]
99

Same for O=c1[nH]ccc2c1c(-c1csc(N3CCOCC3)c1)nn2-c1c(F)cccc1F [Example 234]
99

Same for CS(=O)(=O)N1CCN(c2ccc(-c3nn(-c4c(F)cccc4F)c4cc[nH]c(=O)c34)cc2)CC1 [Example 311]
95

Same for O=c1[nH]ccc2c1c(-c1ccc(C3CCOCC3)cc1)nn2-c1c(F)cccc1F [Example 257]
96

Same for O=C1CCCN1Cc1ccc(-c2nn(-c3c(F)cccc3F)c3cc[nH]c(=O)c23)cc1 [Example 275]
96

Same for COCCN(C)c1ccc(-c2nn(-c3c(F)cccc3F)c3c(Cl)c[nH]c(=O)c23)cc1 [Example 241]
53
